Cited source: ChEMBL document CHEMBL1137617

# ASSAYED TARGET: Calcitonin gene-related peptide type 1 receptor (Homo sapiens, UniProt Q16602)
# Sequence (Q16602 whole entry): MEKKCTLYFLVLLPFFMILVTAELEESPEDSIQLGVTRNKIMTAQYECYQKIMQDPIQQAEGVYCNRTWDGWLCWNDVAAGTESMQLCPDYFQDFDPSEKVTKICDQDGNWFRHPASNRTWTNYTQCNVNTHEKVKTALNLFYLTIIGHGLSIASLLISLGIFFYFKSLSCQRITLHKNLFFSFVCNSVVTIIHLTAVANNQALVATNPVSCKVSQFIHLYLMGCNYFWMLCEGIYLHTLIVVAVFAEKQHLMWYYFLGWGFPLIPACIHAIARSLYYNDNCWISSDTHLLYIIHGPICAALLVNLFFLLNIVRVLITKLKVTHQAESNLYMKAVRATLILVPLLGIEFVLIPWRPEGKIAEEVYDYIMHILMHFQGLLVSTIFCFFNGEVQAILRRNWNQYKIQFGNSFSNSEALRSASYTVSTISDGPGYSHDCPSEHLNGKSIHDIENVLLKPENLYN
# TEST METHOD NOTES: Antagonist activity at human CL receptor expressed in E10 cells assessed as CGRP-stimulated cAMP production
pIC50: −log10 of the molar value.
Everything with pIC50 lower than 7 is condition not met; everything else, including exactly 7, is condition met.

Below are worked cases with known answers.
O=C(N[C@@H]1CC[C@@H](c2cccc(F)c2F)CN(CCN2CCOCC2)C1=O)N1CCC(n2c(=O)[nH]c3ncccc32)CC1    condition met
CS(=O)(=O)CCN1C[C@H](c2cccc(F)c2F)CC[C@@H](NC(=O)N2CCC(n3c(=O)[nH]c4ncccc43)CC2)C1=O    condition met
O=C1NC[C@H](c2cccc(F)c2F)CC[C@H]1NC(=O)N1CCC(n2c(=O)[nH]c3ncccc32)CC1    condition met
O=C1NCC(c2ccc(O)cc2)CC[C@H]1NC(=O)N1CCC(n2c(=O)[nH]c3ncccc32)CC1 (stereo not given in full)    condition not met
CC(C)C1CC[C@@H](NC(=O)N2CCC(n3c(=O)[nH]c4ncccc43)CC2)C(=O)NC1 (stereo not given in full)    condition not met
O=C1NCC(c2cccc(F)c2)CC[C@H]1NC(=O)N1CCC(n2c(=O)[nH]c3ncccc32)CC1 (stereo not given in full)    condition not met
O=C1NCC(Cc2ccccc2)CC[C@H]1NC(=O)N1CCC(n2c(=O)[nH]c3ncccc32)CC1 (stereo not given in full)    condition not met
O=C1NCC(c2ccsc2)CC[C@H]1NC(=O)N1CCC(n2c(=O)[nH]c3ncccc32)CC1 (stereo not given in full)    condition not met

Shifting focus to the molecule that follows.
Request: Hi, just wondering whether `O=C(N[C@@H]1CC[C@@H](c2cccc(F)c2F)CN(CC2CC2)C1=O)N1CCC(n2c(=O)[nH]c3ncccc32)CC1` shows pIC50 of 7 or higher.
Response: condition met
